- assay: Plasma protein binding in rat
- Assay type: ADME, cell-free
- testParameters: read-out: PPB (converted)

>  <givenSmiles>
COc1cc(C(=O)N2CCOCC2)ccc1Nc1ncc(Cl)c(OC)n1

>  <fraction unbound>
0.054

$$$$
>  <givenSmiles>
CCNc1nc(Nc2cc(OC)c(C(=O)N3CCOCC3)cc2Cl)ncc1C(F)(F)F

>  <fraction unbound>
0.037

$$$$
>  <givenSmiles>
COc1cc(C(=O)N2CCOCC2)ccc1Nc1ncc(Br)c(OC)n1

>  <fraction unbound>
0.034

$$$$
>  <givenSmiles>
CNc1nc(Nc2cc(OC)c(C(=O)N3CCOCC3)cc2Cl)ncc1C(F)(F)F

>  <fraction unbound>
0.092

$$$$
>  <givenSmiles>
CCNc1nc(Nc2cc(F)c(C(=O)N3CCOCC3)cc2OC)ncc1C(F)(F)F

>  <fraction unbound>
0.034

$$$$

---

- assay: Plasma protein binding in rat
- Assay type: ADME, cell-free
- testParameters: read-out: PPB (converted)
Outcome: fulfilled for fraction unbound of at least 0.04; not fulfilled for anything lower.

>  <givenSmiles>
CNc1nc(Nc2ccc(C(=O)N3CCOCC3)cc2OC)ncc1Cl

>  <discreteLabel>
fulfilled

$$$$
>  <givenSmiles>
CNc1nc(Nc2ccc(C(=O)N3CCOCC3)cc2OC)ncc1C(F)(F)F

>  <discreteLabel>
fulfilled

$$$$
>  <givenSmiles>
COc1cc(C(=O)N2CCOCC2)c(F)cc1Nc1ncc(C(F)(F)F)c(NC2CC2)n1

>  <discreteLabel>
not fulfilled

$$$$
>  <givenSmiles>
CNc1nc(Nc2cc(C)c(C(=O)N3CCOCC3)cc2OC)ncc1C(F)(F)F

>  <discreteLabel>
fulfilled

$$$$
>  <givenSmiles>
CNc1nc(Nc2cc(F)c(C(=O)N3CCOCC3)cc2OC)ncc1C(F)(F)F

>  <discreteLabel>
fulfilled

$$$$
>  <givenSmiles>
CNc1nc(Nc2ccc(C(=O)N3CCOCC3)cc2OC)ncc1C#N

>  <discreteLabel>
fulfilled

$$$$
>  <givenSmiles>
CNc1nc(Nc2cc(OC)c(C(=O)N3CCOCC3)cc2OC)ncc1C(F)(F)F

>  <discreteLabel>
fulfilled

$$$$
>  <givenSmiles>
CNc1nc(Nc2cc(Cl)c(C(=O)N3CCOCC3)cc2OC)ncc1C(F)(F)F

>  <discreteLabel>
not fulfilled

$$$$
>  <givenSmiles>
[2H]C1([2H])OC([2H])([2H])C([2H])([2H])N(C(=O)c2cc(Cl)c(Nc3ncc(C(F)(F)F)c(NCC)n3)cc2OC)C1([2H])[2H]

>  <discreteLabel>
fulfilled

$$$$

---

- assayedSystem: Leucine-rich repeat serine/threonine-protein kinase 2 (Homo sapiens)
- Sequence (Q5S007 whole entry): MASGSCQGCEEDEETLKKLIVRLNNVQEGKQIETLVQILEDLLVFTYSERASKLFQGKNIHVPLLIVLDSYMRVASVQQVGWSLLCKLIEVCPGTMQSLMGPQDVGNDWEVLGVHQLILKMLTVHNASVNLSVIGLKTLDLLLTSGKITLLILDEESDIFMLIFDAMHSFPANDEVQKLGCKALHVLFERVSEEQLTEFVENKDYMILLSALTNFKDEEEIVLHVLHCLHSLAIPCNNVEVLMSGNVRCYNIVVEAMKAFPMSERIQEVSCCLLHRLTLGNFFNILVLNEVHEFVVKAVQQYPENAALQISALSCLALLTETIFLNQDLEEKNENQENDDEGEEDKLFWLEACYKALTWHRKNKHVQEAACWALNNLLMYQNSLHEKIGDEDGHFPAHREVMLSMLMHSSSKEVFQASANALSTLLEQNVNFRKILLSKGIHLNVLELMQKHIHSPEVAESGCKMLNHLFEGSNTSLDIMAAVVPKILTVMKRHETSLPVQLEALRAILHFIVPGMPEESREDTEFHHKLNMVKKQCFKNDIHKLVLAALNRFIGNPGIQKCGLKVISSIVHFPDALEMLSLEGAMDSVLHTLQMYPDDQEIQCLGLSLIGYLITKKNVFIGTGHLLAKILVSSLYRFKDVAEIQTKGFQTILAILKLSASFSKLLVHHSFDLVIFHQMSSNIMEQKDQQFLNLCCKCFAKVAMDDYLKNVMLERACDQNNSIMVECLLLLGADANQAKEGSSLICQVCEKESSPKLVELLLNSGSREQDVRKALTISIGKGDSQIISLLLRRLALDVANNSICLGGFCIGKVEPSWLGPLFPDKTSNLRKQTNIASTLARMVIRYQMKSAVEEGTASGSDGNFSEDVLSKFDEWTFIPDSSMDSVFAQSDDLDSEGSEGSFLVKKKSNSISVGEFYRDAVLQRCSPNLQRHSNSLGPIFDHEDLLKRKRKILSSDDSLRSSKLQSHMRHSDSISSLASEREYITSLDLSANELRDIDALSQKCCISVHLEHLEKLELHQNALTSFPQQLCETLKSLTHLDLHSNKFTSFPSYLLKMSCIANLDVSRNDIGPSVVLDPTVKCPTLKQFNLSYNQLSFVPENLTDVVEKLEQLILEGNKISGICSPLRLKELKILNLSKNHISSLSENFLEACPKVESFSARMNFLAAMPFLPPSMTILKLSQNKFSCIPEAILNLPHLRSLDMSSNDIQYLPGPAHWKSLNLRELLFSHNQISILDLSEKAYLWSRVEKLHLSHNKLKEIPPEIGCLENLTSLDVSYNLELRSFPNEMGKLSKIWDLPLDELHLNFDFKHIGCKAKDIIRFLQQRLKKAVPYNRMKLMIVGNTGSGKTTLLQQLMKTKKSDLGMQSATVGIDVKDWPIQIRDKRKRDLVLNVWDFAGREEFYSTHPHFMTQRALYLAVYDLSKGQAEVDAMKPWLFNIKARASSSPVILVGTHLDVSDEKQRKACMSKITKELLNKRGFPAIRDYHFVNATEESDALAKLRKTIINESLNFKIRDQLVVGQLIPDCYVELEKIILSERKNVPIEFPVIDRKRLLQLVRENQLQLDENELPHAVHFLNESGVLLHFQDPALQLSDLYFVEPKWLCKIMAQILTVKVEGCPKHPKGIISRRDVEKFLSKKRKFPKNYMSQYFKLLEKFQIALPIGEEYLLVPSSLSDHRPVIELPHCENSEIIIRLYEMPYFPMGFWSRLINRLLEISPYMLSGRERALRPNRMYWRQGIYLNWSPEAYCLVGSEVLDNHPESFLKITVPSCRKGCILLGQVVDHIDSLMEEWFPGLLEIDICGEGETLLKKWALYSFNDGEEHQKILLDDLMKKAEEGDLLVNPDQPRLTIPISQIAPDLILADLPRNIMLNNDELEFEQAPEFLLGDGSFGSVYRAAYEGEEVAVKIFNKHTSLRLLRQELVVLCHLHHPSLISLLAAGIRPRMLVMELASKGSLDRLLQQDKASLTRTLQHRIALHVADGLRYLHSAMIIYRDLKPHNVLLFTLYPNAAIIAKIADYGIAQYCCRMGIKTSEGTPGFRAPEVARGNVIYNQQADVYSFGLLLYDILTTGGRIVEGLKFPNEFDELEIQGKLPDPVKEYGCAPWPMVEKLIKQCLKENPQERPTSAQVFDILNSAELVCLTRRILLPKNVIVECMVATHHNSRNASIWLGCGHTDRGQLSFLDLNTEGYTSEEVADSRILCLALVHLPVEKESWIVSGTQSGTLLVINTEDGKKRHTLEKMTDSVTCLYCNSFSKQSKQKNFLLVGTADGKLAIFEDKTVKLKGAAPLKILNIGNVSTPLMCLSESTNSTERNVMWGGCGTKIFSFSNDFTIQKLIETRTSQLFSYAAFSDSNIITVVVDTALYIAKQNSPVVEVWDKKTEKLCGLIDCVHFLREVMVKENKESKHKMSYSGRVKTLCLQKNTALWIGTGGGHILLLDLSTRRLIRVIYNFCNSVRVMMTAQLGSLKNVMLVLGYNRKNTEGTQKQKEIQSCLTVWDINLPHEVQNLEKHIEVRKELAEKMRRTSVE
- assay: Inhibition of autophosphorylation of LRRK2 in human HEK293 cells
// boundary case: IC50 equal to 30 nM maps to not met; strictly smaller maps to met

>  <givenSmiles>
COc1cc(C(=O)N2CCOCC2)ccc1Nc1ncc(Cl)c(OC)n1

>  <discreteLabel>
not met

$$$$
>  <givenSmiles>
CNc1nc(Nc2ccc(C(=O)N3CCOCC3)cc2OC)ncc1F

>  <discreteLabel>
not met

$$$$
>  <givenSmiles>
CCNc1nc(Nc2cc(F)c(C(=O)N3CCOCC3)cc2OC)ncc1C(F)(F)F

>  <discreteLabel>
met

$$$$
>  <givenSmiles>
CCNc1nc(Nc2cc(OC)c(C(=O)N3CCOCC3)cc2Cl)ncc1C(F)(F)F

>  <discreteLabel>
met

$$$$
>  <givenSmiles>
CNc1nc(Nc2cc(OC)c(C(=O)N3CCOCC3)cc2Cl)ncc1C(F)(F)F

>  <discreteLabel>
met

$$$$
>  <givenSmiles>
CNc1nc(Nc2cc(C)c(C(=O)N3CCOCC3)cc2Cl)ncc1C(F)(F)F

>  <discreteLabel>
not met

$$$$
>  <givenSmiles>
CNc1nc(Nc2cc(OC)c(C(=O)N3CCOCC3)cc2F)ncc1C(F)(F)F

>  <discreteLabel>
not met

$$$$
>  <givenSmiles>
CCNc1nc(Nc2cc3c(cc2OC)C(=O)N(CC(C)(C)O)C3)ncc1C(F)(F)F

>  <discreteLabel>
met

$$$$
>  <givenSmiles>
CNc1nc(Nc2cc(F)c(S(C)(=O)=O)cc2OC)ncc1C(F)(F)F

>  <discreteLabel>
met

$$$$
>  <givenSmiles>
CNc1nc(Nc2cc(Cl)c(C(=O)N3CCOCC3)cc2OC)ncc1C(F)(F)F

>  <discreteLabel>
met

$$$$

Ref: ChEMBL document CHEMBL2176933
